- Test context: in methanol, 288.15 K
Property measured: solubility (mole fraction)
Respond with the number and no other words.

input: Need solubility (mole fraction), item CCc1ccc(CCOc2ccc(CC3SC(=O)NC3=O)cc2)nc1.Cl (stereo unspecified)
output: 0.00615

----------
- Test context: in acetic acid, 288.15 K
Property measured: solubility (mole fraction)
Respond with the number and no other words.

input: Need solubility (mole fraction), item CCc1ccc(CCOc2ccc(CC3SC(=O)NC3=O)cc2)nc1.Cl (stereo unspecified)
output: 0.00108

----------
- Test context: in acetic acid, 313.15 K
Property measured: solubility (mole fraction)
Respond with the number and no other words.

input: Need solubility (mole fraction), item CCc1ccc(CCOc2ccc(CC3SC(=O)NC3=O)cc2)nc1.Cl (stereo unspecified)
output: 0.00558

----------
- Test context: in ethanol, 313.15 K
Property measured: solubility (mole fraction)

input: Need solubility (mole fraction), item CCc1ccc(CCOc2ccc(CC3SC(=O)NC3=O)cc2)nc1.Cl (stereo unspecified)
output: 0.00178

----------
- Test context: in n-propanol, 303.15 K
Property measured: solubility (mole fraction)
Respond with the number and no other words.

input: Need solubility (mole fraction), item CCc1ccc(CCOc2ccc(CC3SC(=O)NC3=O)cc2)nc1.Cl (stereo unspecified)
output: 0.00075

----------
- Test context: in n-propanol, 318.15 K
Property measured: solubility (mole fraction)
Respond with the number and no other words.

input: Need solubility (mole fraction), item CCc1ccc(CCOc2ccc(CC3SC(=O)NC3=O)cc2)nc1.Cl (stereo unspecified)
output: 0.00127

----------
- Test context: in n-propanol, 288.15 K
Property measured: solubility (mole fraction)
Respond with the number and no other words.

input: Need solubility (mole fraction), item CCc1ccc(CCOc2ccc(CC3SC(=O)NC3=O)cc2)nc1.Cl (stereo unspecified)
output: 0.000456

----------
- Test context: in ethanol, 284.15 K
Property measured: solubility (mole fraction)

input: Need solubility (mole fraction), item CCc1ccc(CCOc2ccc(CC3SC(=O)NC3=O)cc2)nc1.Cl (stereo unspecified)
output: 0.000626

----------
- Test context: in acetic acid, 323.15 K
Property measured: solubility (mole fraction)
Respond with the number and no other words.

input: Need solubility (mole fraction), item CCc1ccc(CCOc2ccc(CC3SC(=O)NC3=O)cc2)nc1.Cl (stereo unspecified)
output: 0.0118

----------
- Test context: in n-propanol, 313.15 K
Property measured: solubility (mole fraction)

input: Need solubility (mole fraction), item CCc1ccc(CCOc2ccc(CC3SC(=O)NC3=O)cc2)nc1.Cl (stereo unspecified)
output: 0.00104

----------
- Test context: in ethanol, 288.15 K
Property measured: solubility (mole fraction)
Respond with the number and no other words.

input: Need solubility (mole fraction), item CCc1ccc(CCOc2ccc(CC3SC(=O)NC3=O)cc2)nc1.Cl (stereo unspecified)
output: 0.000723

----------
- Test context: in ethanol, 278.15 K
Property measured: solubility (mole fraction)
Respond with the number and no other words.

input: Need solubility (mole fraction), item CCc1ccc(CCOc2ccc(CC3SC(=O)NC3=O)cc2)nc1.Cl (stereo unspecified)
output: 0.000535

----------
- Test context: in acetic acid, 318.15 K
Property measured: solubility (mole fraction)
Respond with the number and no other words.

input: Need solubility (mole fraction), item CCc1ccc(CCOc2ccc(CC3SC(=O)NC3=O)cc2)nc1.Cl (stereo unspecified)
output: 0.00804

----------
- Test context: in acetic acid, 308.15 K
Property measured: solubility (mole fraction)
Respond with the number and no other words.

input: Need solubility (mole fraction), item CCc1ccc(CCOc2ccc(CC3SC(=O)NC3=O)cc2)nc1.Cl (stereo unspecified)
output: 0.0038

----------
- Test context: in ethanol, 298.15 K
Property measured: solubility (mole fraction)
Respond with the number and no other words.

input: Need solubility (mole fraction), item CCc1ccc(CCOc2ccc(CC3SC(=O)NC3=O)cc2)nc1.Cl (stereo unspecified)
output: 0.00103
